Test system: MCF10A
Experimental protocol: normalised growth rate inhibition (GR value) relative to DMSO control (GR (1 = untreated growth, 0 = cytostasis, <0 = cytotoxic)); higher = less growth inhibition
Condition parameters: 0.04 µM; 72 h
Measured attribute: normalised growth rate inhibition

>>> df
                         structure_notation                 measured_attribute  recorded_result
0  c1ccc2c(-c3cnn4cc(-c5ccc(N6CCNCC6)cc5)cnc34)ccnc2c1  normalised growth rate inhibition            0.999
1  COc1cc(N2CCC(C(N)=O)CC2)ccc1Nc1nc(N)c(Cl)c(Nc2ccccc2S(=O)(=O)C(C)C)n1  normalised growth rate inhibition            0.933
2  Nc1cccc(-c2cc3c(Oc4cccc(O)c4)ncnc3[nH]2)c1  normalised growth rate inhibition             1.02
3  C=CC(=O)Nc1cc(-n2c(=O)ccc3cnc4ccc(-c5cn[nH]c5)cc4c32)ccc1C  normalised growth rate inhibition             1.01
4  COc1cc2ncnc(Nc3ccc(F)c(Cl)c3)c2cc1OCCCN1CCOCC1  normalised growth rate inhibition            0.887
5  Cc1ccc(NC(=O)c2ccc(CN3CCN(C)CC3)cc2)cc1Nc1nccc(-c2cccnc2)n1  normalised growth rate inhibition                1
6  Cc1cnc(-c2cnc(NCCNc3ccc(C#N)cn3)nc2-c2ccc(Cl)cc2Cl)[nH]1  normalised growth rate inhibition             1.01
7  O=c1[nH]c2ccccc2n1C1CCN(Cc2ccc(-c3[nH]c4cc5ncnc5cc4nc3-c3ccccc3)cc2)CC1  normalised growth rate inhibition            0.994

----------
Tested on: MCF7
Experimental protocol: normalised growth rate inhibition (GR value) relative to DMSO control (GR (1 = untreated growth, 0 = cytostasis, <0 = cytotoxic)); higher = less growth inhibition
Condition parameters: 1.11 µM; 72 h
normalised growth rate inhibition overview
Measured attribute: normalised growth rate inhibition

                         structure_notation  test_target  recorded_result
0  O=C(NOC[C@H](O)CO)c1ccc(F)c(F)c1Nc1ccc(I)cc1F         MCF7            0.442
1  Nc1ccc(-c2ccc3ncc4ccc(=O)n(-c5cccc(C(F)(F)F)c5)c4c3c2)cn1         MCF7          -0.0476
2  Cn1cc(-c2[nH]c3cc(NC(=O)[C@H](N)C4CCCCC4)cc4c3c2C=NNC4=O)cn1         MCF7            0.235
3  COC(=O)c1ccc2c(C(=Nc3ccc(N(C)C(=O)CN4CCN(C)CC4)cc3)c3ccccc3)c(O)[nH]c2c1         MCF7            0.545
4  Cc1cc(C(=O)NOCCO)c(Nc2ccc(I)cc2F)n(C)c1=O         MCF7             0.41

----------
Test system: BT20
Experimental protocol: normalised growth rate inhibition (GR value) relative to DMSO control (GR (1 = untreated growth, 0 = cytostasis, <0 = cytotoxic)); higher = less growth inhibition
Condition parameters: 1.11 µM; 72 h
Measured attribute: normalised growth rate inhibition

In [3]: df
Out[3]:
                         structure_notation                 measured_attribute  recorded_result
0  NC(=O)Nc1cc(-c2cccc(F)c2)sc1C(=O)N[C@H]1CCCNC1  normalised growth rate inhibition            0.262
1  CCOc1cc2ncc(C#N)c(Nc3ccc(OCc4ccccn4)c(Cl)c3)c2cc1NC(=O)/C=C/CN(C)C  normalised growth rate inhibition            0.528
2  COCC(=O)NC/C=C/c1ccc2ncnc(Nc3ccc(Oc4ccc(C)nc4)c(C)c3)c2c1  normalised growth rate inhibition            0.805
3  C[C@@H](N)c1ccc(C(=O)Nc2ccnc3[nH]ccc23)cc1  normalised growth rate inhibition            0.895
4  Cc1[nH]c(/C=C2\C(=O)Nc3ccc(S(=O)(=O)N(C)c4cccc(Cl)c4)cc32)c(C)c1C(=O)N1CCN(C)CC1  normalised growth rate inhibition            0.922

----------
Tested on: BT20
Experimental protocol: normalised growth rate inhibition (GR value) relative to DMSO control (GR (1 = untreated growth, 0 = cytostasis, <0 = cytotoxic)); higher = less growth inhibition
Condition parameters: 1.11 µM; 72 h

Compound	normalised growth rate inhibition
CNC(=O)Nc1ccc(-c2nc(N3CC4CCC(C3)O4)c3cnn(C4CCC5(CC4)OCCO5)c3n2)cc1	0.15
CN(c1ncccc1CNc1nc(Nc2ccc3c(c2)CC(=O)N3)ncc1C(F)(F)F)S(C)(=O)=O	0.583
CC(=O)c1c(C)c2cnc(Nc3ccc(N4CCNCC4)cn3)nc2n(C2CCCC2)c1=O [palbociclib]	0.295
CC(C)(C)c1cnc(CSc2cnc(NC(=O)C3CCNCC3)s2)o1	-0.323
Nc1ccc(C(=O)Nc2cccc(-c3nc(N4CCOCC4)c4oc5ncccc5c4n3)c2)cn1	0.746
C=CC(=O)N1CCc2ccc(-n3c(=O)ccc4cnc5ccc(-c6cnn(C)c6)cc5c43)cc21 [QL-XII-47]	0.0671
CCCS(=O)(=O)Nc1ccc(F)c(C(=O)c2c[nH]c3ncc(-c4ccc(Cl)cc4)cc23)c1F [vemurafenib]	0.949
Cn1cnc2c(F)c(Nc3ccc(Br)cc3Cl)c(C(=O)NOCCO)cc21 [selumetinib]	1.01
CO[C@H]1C[C@@H]2CC[C@@H](C)[C@@](O)(O2)C(=O)C(=O)N2CCCC[C@H]2C(=O)O[C@H]([C@H](C)C[C@@H]2CC[C@@H](O)[C@H](OC)C2)CC(=O)[C@H](C)/C=C(\C)[C@@H](O)[C@@H](OC)C(=O)[C@H](C)C[C@H](C)/C=C/C=C/C=C/1C [sirolimus]	0.524
NC1(c2ccc(-c3nc4ccn5c(=O)[nH]nc5c4cc3-c3ccccc3)cc2)CCC1 [MK-2206]	0.583
COC(=O)c1ccc2c(C(=Nc3ccc(N(C)C(=O)CN4CCN(C)CC4)cc3)c3ccccc3)c(O)[nH]c2c1 [nintedanib]	0.843
COc1cc2ncn(-c3cc(OCc4ccccc4C(F)(F)F)c(C(N)=O)s3)c2cc1OC	-0.00404
O=c1[nH]c2ccccc2n1C1CCN(Cc2ccc(-c3[nH]c4cc5ncnc5cc4nc3-c3ccccc3)cc2)CC1 [AKT-inhibitor-1-2]	0.849
C=CC(=O)Nc1cc2c(Nc3ccc(F)c(Cl)c3)ncnc2cc1OCCCN1CCOCC1 [canertinib]	0.814
CS(=O)(=O)CCNCc1ccc(-c2ccc3ncnc(Nc4ccc(OCc5cccc(F)c5)c(Cl)c4)c3c2)o1 [lapatinib]	0.991
N#CC(c1ccnc(NCCc2cccnc2)n1)c1nc2ccccc2s1 (stereo unspecified)	1.03

----------
Test system: MDAMB231
Experimental protocol: normalised growth rate inhibition (GR value) relative to DMSO control (GR (1 = untreated growth, 0 = cytostasis, <0 = cytotoxic)); higher = less growth inhibition
Condition parameters: 0.12 µM; 72 h
Each entry belongs to exactly one class, chosen by where its normalised growth rate inhibition falls: low interval: < 0.8; middle interval: ≥ 0.8 and < 0.9; high interval: ≥ 0.9

>>> print(df.to_string())
                                   molecule   assigned_label
0  Cc1ccc(F)c(NC(=O)Nc2ccc(-c3cccc4[nH]nc(N)c34)cc2)c1 [linifanib]    high interval
1  Nc1cc(C(F)(F)F)c(-c2cc(N3CCOCC3)nc(N3CCOCC3)n2)cn1 [buparlisib]    high interval
2  CC(C)(C)c1cnc(CSc2cnc(NC(=O)C3CCNCC3)s2)o1     low interval
3  COc1cc2ncn(-c3cc(OCc4ccccc4C(F)(F)F)c(C(N)=O)s3)c2cc1OC     low interval
4  FC(F)c1nc2ccccc2n1-c1nc(N2CCOCC2)nc(N2CCOCC2)n1 [ZSTK-474]  middle interval

----------
Test system: MCF10A
Experimental protocol: normalised growth rate inhibition (GR value) relative to DMSO control (GR (1 = untreated growth, 0 = cytostasis, <0 = cytotoxic)); higher = less growth inhibition
Condition parameters: 3.33 µM; 72 h
Note to self: values exactly at 0.4 are Y. So normalised growth rate inhibition at or above 0.4 is Y, below is N.

                                   compound  assigned_label
0  C=CC(=O)Nc1cc(-n2c(=O)ccc3cnc4ccc(-c5cn[nH]c5)cc4c32)ccc1C [QL-X-138]               Y
1  O=C(NOCC1CC1)c1ccc(F)c(F)c1Nc1ccc(I)cc1Cl               N
2  C=CC(=O)N1CCc2ccc(-n3c(=O)ccc4cnc5ccc(-c6cnn(C)c6)cc5c43)cc21 [QL-XII-47]               Y
3  CN(c1ncccc1CNc1nc(Nc2ccc3c(c2)CC(=O)N3)ncc1C(F)(F)F)S(C)(=O)=O               N
4  COc1cc2ncnc(Nc3ccc(F)c(Cl)c3)c2cc1OCCCN1CCOCC1 [gefitinib]               N
5  CCCS(=O)(=O)Nc1ccc(F)c(C(=O)c2c[nH]c3ncc(Cl)cc23)c1F [PLX-4720]               Y
6  CN1CC[C@H](c2c(O)cc(O)c3c(=O)cc(-c4ccccc4Cl)oc23)[C@H](O)C1 [alvocidib]               N
7  Cc1cn(-c2cc(NC(=O)c3ccc(C)c(Nc4nccc(-c5cccnc5)n4)c3)cc(C(F)(F)F)c2)cn1 [nilotinib]               Y
